Hey, just so you know, these numbers are from patent US20200223906A1.

target: RSV F protein of subtype A (strain A2) on recombinant mKate-RSV (respiratory syncytial virus subtype A …, UniProt P03420 26-574); test: cell-based or functional assay
We label by threshold. Values of Neut IC50 subtype A strictly beneath 0.04 µg/mL are yes. Values of 0.04 µg/mL and up are no.

[[record]]
binder = "ADI-18984 (antibody, V domains shown, full-length IgG) VH: QVQLQESGPGLVKPSETLSLTCTVSGASVTTNTYYWTWIRQPPGKELEWIGYIHHTGNTHYNPSLESRLTMSLDTSRNQFSLNLRSATTADTAVYYCARGEHFAYWWGNWGQGALVTVSS VL: DIRVTQSPSSVSASVGDRVTITCRASQGIARWLAWYQQKPGKAPKLLIYAASSLQGGVPSRFSGSGYGTDFTLTISSLQPEDFATYYCQQANSFPRTFGQGTKVEIK"
group = "no"


Does the reported Neut IC50 subtype A of ADI-18990 (antibody, V domains shown, full-length IgG) VH: QVQLQESGPGRVKPSQTLSLTCTVSGVSVTINDYYWTWLRQSPGKGLEWIGNIYNSGSTYQNPSLQSRVTMSVDTAKNHFSLKLTSVTAADTAVYYCARDLGTANNYYFGMDVWGLGTTVTVSS VL: DIVLTQSPATLSLSPGERATLSCRASQSVSTYLAWYQQKPGQAPRLLIYNGSNRVTGTPARFSGSGSGTDFTLTISSVEPEDFAVYYCQQRSNWPPYTFGQGTKVEIK stay below 0.04 µg/mL?
no

Does the reported Neut IC50 subtype A of ADI-19011 (antibody, V domains shown) VH: EVQLVESGGGVVQPGGSLRLSCAGSGFAFGSFAMHWVRQAPGKGLEWVAVISFDGKNTKYADSVKGRFTTSRDNSRNTLYLQMDSLRGDDTAIYYCATIRGIVAGLCDNWGQGTLVTVSS VL: QPVLTQSSSDSASLGASVKLTCTLSSGHRNYIIAWHQQQPGKAPRFLMKVEGSGSFTMGSGVPDRFSGSSSGADRYLTISNLQSEDEADYYCEAWDFNTGGVFGGGTQLTVL stay below 0.04 µg/mL?
no

Does the reported Neut IC50 subtype A of ADI-18985 (antibody, V domains shown) VH: QVQLVQSGPEVKKPGASVKVSCEASGYTFTDFFVHWVRQAPGEGLVWLGWVNPLSGATKYAQNFQGRVTMTSDTSITTAYMALSSLRHDDTAVYYCTSQTSPYTPGAMGVWGQGTTVTVSS VL: DIRVTQSPASLSAFVGDRVTITCRASPAISGYLSWYQQKAGKAPKILIYDASNLYSGAPSRFSGSRSGTDFTLTITSLQPEDFATYYCQQTYNGLIAFGPGTKVEIK stay below 0.04 µg/mL?
yes

Does the reported Neut IC50 subtype A of ADI-19000 (antibody, V domains shown, full-length IgG; also called Antibody Number 348) VH: EVQLVESGAEVKKPGASVKVSCKASGYTFTTYDINWVRQATGRGLEWMGWMTPDSGSTGYPQNFQGRVTMTRNTSISTAYMELSNLRSEDTAVYYCVQMDHCRSTSCSEGNWFDTWGQGTLVTVSS VL: QPGLTQPPSVSAAPRQRVTISCSGSSSNIGTNAVNWYQQLPGKAPKLLIYSDNLMPSGVSARFSGSKSGTSASLAISGLQSEDEADYYCAAWDDSLNVWVFGGGTKLTVL stay below 0.04 µg/mL?
yes

Does the reported Neut IC50 subtype A of ADI-19014 (antibody, V domains shown, full-length IgG; also called Antibody Number 362) VH: EVQLVESGPRLVKPSQTLSLTCTVYGGSISGGQNYYSWVRQPPGKGLEWIGYIFSSGTTYYKPSLKSRISISFDTSKNQFSLNLASVTAADTAVYFCARSADIDIVWGSSLYMPLWGQGTLVTVSS VL: EIVLTQSPGTLSLSPGQRATLSCRATHIVSNSYLAWYQQKPGQAPRLLIHGVSIRATGIPDRFSGSGSGTDFTLTISRLEPEDFAVYFCQQYGTSPWTFGQGTKLEIK stay below 0.04 µg/mL?
no

Does the reported Neut IC50 subtype A of ADI-18987 (antibody, V domains shown) VH: QVQLVQSGAEVKKPGSSVKVSCKASGGTFSGHAINWVRQAPGQGLEWMGGIIHIFGTVNYAPKFQGRVTITADASTGTVYMELSSLISEDTAVYYCARDAYEVWTGSYLPPFDDWGQGTLVTVSS VL: DIVMTQSPGTLSLSPGDRVTLSCRASQTVTSSYLAWYQQKPGQAPRLLIYGAFTRATGIPDRFSGSGSGTDFTLSISRLEPEDFAVYYCQQYGSSFLTFGGGTKVDIK stay below 0.04 µg/mL?
yes

Does the reported Neut IC50 subtype A of ADI-18979 (antibody, V domains shown) VH: EVQLLESGAEVKKPGASVKISCKASGYIFTSYGVSWVRQAPGQGLKWMGWISGYNGNTYYDQKFQGRVTMTTDTSTNTAYMELRSLTSDDTAVYYCARDSFSETGTGFPDFWGQGTLVTVSS VL: EIVLTQSPLSLPVTLGQPASISCRSSQSLEYSDGNTYLNWFQQRPGQSPRRLIYKVSNRDSGVPDRFSGSGSGTDFTLKISRVEAEDVGVYYCMQATHRPRTFGQGTKVDIK stay below 0.04 µg/mL?
yes

Does the reported Neut IC50 subtype A of ADI-18988 (antibody, V domains shown) VH: EVQLVESGGGLVRPGGSLRLSCAASGFSLSSYGMSWVRQAPGKGLEWVSSITAGSSYINYADSVKGRFTISRDNAKSSLFLQMTSLRVEDTAVYFCVREAYASSSALYWFDPWGQGTLVTVSS VL: QSVLTQPPSVSGAPGQRVTISCTGSSSNLGAGYVVHWYQQLPGTSPKLLIYGNTDRPSGVPDRFSGSKSGTSASLAISGLQAEDEADYYCQSYDSSLSGWVFGGGTKLTVL stay below 0.04 µg/mL?
no

Does the reported Neut IC50 subtype A of ADI-19009 (antibody, V domains shown) VH: QVQLVQSGAEVKRPGSSVKVSCKASGGTFRGYHISWVRQAPGQGLEWMGGIIHLFGTVSYAPKFQGRVTITADASTGTAHMELSSLTSDDTAIYYCARDAYEVWTGSYLPPFDYWGQGTLVTVSS VL: DIVMTQTPGTLSLSPGERVTLSCRASQTVTSSYLAWYQQKPGQAPRLLIYGAFTRATGIPDRFSGSGSGTDFTLTISRLEPEDFAVYYCQQYGSSFLTFGGGTKLEIK stay below 0.04 µg/mL?
no
